# system-tested: 5-hydroxytryptamine receptor 3A (Mus musculus) (UniProt P23979)
# Sequence (P23979 whole entry, looked up): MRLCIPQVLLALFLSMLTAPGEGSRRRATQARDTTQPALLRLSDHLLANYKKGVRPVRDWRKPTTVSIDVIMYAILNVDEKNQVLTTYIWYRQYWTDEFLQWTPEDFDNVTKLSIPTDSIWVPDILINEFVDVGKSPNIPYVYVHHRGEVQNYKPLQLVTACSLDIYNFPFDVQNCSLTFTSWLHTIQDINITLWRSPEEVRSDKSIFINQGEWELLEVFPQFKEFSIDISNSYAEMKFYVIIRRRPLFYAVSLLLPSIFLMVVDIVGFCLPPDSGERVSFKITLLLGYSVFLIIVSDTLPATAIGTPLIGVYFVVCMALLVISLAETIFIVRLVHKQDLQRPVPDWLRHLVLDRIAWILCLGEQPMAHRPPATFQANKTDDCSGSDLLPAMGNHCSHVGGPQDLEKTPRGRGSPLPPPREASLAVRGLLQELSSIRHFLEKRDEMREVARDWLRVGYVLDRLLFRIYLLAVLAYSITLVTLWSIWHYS
reported-property: pKi
Just so you know, pKi here is -log10 of the concentration in molar units; reply with that number alone.

Consider N=C(N)NCc1nc(-c2c[nH]c3ccccc23)cs1 . Its measured pKi is 8.48
